target: AdSS from H. pylori strain 26695 (Helicobacter pylori); assay: AdSS enzyme activity assay (adenylosuccinate formation, 280 nm)
Sequence (P56137 whole entry): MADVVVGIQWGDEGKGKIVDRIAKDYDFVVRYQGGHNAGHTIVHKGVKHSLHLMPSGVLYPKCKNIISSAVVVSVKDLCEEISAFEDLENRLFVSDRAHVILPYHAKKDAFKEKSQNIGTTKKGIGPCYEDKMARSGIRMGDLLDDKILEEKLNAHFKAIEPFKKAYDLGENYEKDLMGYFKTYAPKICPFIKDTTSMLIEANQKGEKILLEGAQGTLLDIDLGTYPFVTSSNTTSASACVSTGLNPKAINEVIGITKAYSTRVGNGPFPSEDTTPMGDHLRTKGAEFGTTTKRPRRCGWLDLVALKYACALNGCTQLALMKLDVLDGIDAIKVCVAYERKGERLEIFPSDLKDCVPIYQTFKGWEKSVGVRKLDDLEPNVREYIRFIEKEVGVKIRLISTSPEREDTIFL
MEASUREMENT_KIND: pIC50
API: returns pIC50 as number; meaning -log10 of concentration in mol/L.

Value sought: pIC50, system AdSS from H. pylori strain 26695 (Helicobacter pylori), item Cc1ncc(COP(=O)(O)O)c(C=O)c1O [PLP, pyridoxal 5′-phosphate] . Result: 4.88

* * *

target: PNP from H. pylori strain 26695 (Helicobacter pylori, UniProt P56463); construct: made in house; host or cells: E. coli; assay: Inhibition of PNP from H. pylori, spectrophotometric phosphorolysis assay; format: biochemical
Sequence (P56463 whole entry): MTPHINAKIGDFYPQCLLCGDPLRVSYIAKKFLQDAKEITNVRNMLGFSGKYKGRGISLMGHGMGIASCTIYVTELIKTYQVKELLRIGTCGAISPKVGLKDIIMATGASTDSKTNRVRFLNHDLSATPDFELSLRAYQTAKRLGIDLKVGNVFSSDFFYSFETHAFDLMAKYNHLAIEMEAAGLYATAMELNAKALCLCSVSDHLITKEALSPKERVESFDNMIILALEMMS
MEASUREMENT_KIND: pKi
API: returns pKi as number; meaning -log10 of concentration in mol/L.

Value sought: pKi, system PNP from H. pylori strain 26695 (Helicobacter pylori, UniProt P56463), item Nc1ncnc2c([C@@H]3N[C@H](CO)C(O)[C@@H]3O)c[nH]c12 (stereo partly shown) [immucillin A] . Result: 8.89
